Reference for the values: PubChem BioAssay (NCI)

System: COLO 205 colon
ASSAY_DETAILS: NCI-60 one-dose screen, 48 h (100 = growth as untreated, 0 = no growth, -100 = all killed)
TEST_SETTINGS: 10 µM unless noted
About 83,000 compounds went through this panel and 20% of them were active in at least one assay; those are over-represented in the sample as a whole. Activity calls are given as the source filed them. Rule for the calls: active = growth percent below 10; inactive = the rest.
MEASURE_NAME: growth

Query: Requested read-out: growth. Entry: `COc1cc(OC)cc(C(=O)Nc2cc(-c3cccnc3)nc(NCCCN3CCOCC3)n2)c1`
Response: 94.3% (inactive)

Query: Request: `C[N+](C)(C)c1ncnc2[n-]cnc12`
Response: 103% (inactive)

Query: Request: `CC(C)C1=NOC(=O)C1=Cc1cn(-c2ccco2)nc1-c1ccccc1`
Response: 103% (inactive)

Query: Request: `O=C(N=c1n(-c2ccccc2)nc2n1CCN2C1=NCCN1C(=O)c1ccc(Cl)cc1)c1ccc(Cl)cc1`
Response: 75.1% (inactive)

Query: Request: NC(=O)CC1C=CCC1 (stereo not given)
Response: 114% (inactive)

Query: Request: C#CC(OC(=O)N(C)C)(c1ccccc1)c1ccc(F)cc1 (stereo not given)
Response: 158% (inactive)

Query: Request: `COc1ccc(C(=O)CSc2nnc(-c3cc(-c4ccccc4)nc4ccccc34)o2)cc1`
Response: 122% (inactive)

Query: Request: `CC(C)C1=NOC(=O)C1=Cc1cn(-c2ccccc2)nc1-c1cccc([N+](=O)[O-])c1`
Response: 109% (inactive)

Query: Request: `COc1cc(-c2nc(SCCC(C)C)nc(Nc3ccc(S(N)(=O)=O)cc3)c2C#N)cc(OC)c1OC`
Response: 29.8% (inactive)

Query: Request: `CC(C)[C@H]1CCC2=C3CC[C@]45OC(=O)[C@@]6(CCC(C)(C)C[C@H]64)CC[C@@]5(C)[C@]3(C)CC[C@@]21C`
Response: 97% [100 µM] (inactive)
